These data points were gathered from ChEMBL document CHEMBL1201862.

tested on: HOP-92; experiment: NCI tumour cell line growth inhibition, 48 h
Active and inactive are the calls of the source. No stated cut-off is given here; in the data, active = GI50 up to about 1.1 µM and inactive = higher.
Form entry, call: pick from 1.0 = active, 0.0 = inactive

Per the assay record, what outcome was assigned to NNC(=O)C(O)C(O)C(O)CO (centres undefined) ?
0.0

Write down the call the test reported for this molecule. Item: CSc1nc2c(ncn2C2OCC(O)C(O)C2O)c(=O)n1C (centres undefined)
0.0

Test call for this molecule, please: "CNc1c2cccc(C)c2nc2c(C(=O)NCCN(C)C)cccc12"
1.0

Tell me the recorded outcome of this test for "O=C(NCCCCCCCCCCCCNC(=O)c1cccc2ccccc12)c1cccc2ccccc12" .
0.0

Hi team, can someone confirm the assay call for "CC(C)COP(=O)(OCC(C)C)C(NS(=O)(=O)c1ccccc1)(C(F)(F)F)C(F)(F)F" ?
0.0

I would be grateful if you could indicate the recorded call for "O=[N+]([O-])c1ccc(N=P(c2ccccc2)(c2ccccc2)c2ccccc2)n2nnnc12" .
0.0

I'd appreciate the recorded outcome for "O=S1(=O)c2cnccc2N=C(NCc2ccccc2)N1c1ccccc1" from this test.
0.0

Please state the recorded outcome for this molecule: "COc1cc(Nc2nc3cc(C)ccc3nc2-c2ccccc2)cc(OC)c1OC"
0.0

Please state the recorded outcome for this molecule: "C[As+](C)(c1ccc(Br)c([N+](=O)[O-])c1)c1ccc(Br)c([N+](=O)[O-])c1"
0.0

----------
system: UACC-257; assay: NCI tumour cell line growth inhibition, 48 h
Activity calls are given as the source filed them. No stated cut-off is given here; in the data, active = GI50 up to about 1.1 µM and inactive = higher.
In this exercise, the only acceptable responses are active, inactive

I would be grateful if you could indicate the recorded call for CC(C)(C)OC(=O)NC(CO)c1cccc(OCc2ccccc2)c1 (centres undefined) .
inactive

Given CC1=NN(C(=O)CC(=O)Nc2ccccc2)C(=O)C1/N=N/c1ccc(S(N)(=O)=O)cc1 (centres undefined) , state the outcome it received in this test.
inactive

Call for entry c1ccc(-c2nn(-c3ccccc3)[n+](-c3ccccc3)n2)cc1 [TETRAZOLIUM RED] :
inactive

Given CC1(C)OC(=S)N(c2ccccc2)C12C=Cc1cc3ccccc3nc1S2 (centres undefined) , state the outcome it received in this test.
inactive

# fetch the recorded call for CCO/C=C1\N=C(C(Cl)c2ccccc2)OC1=O (centres undefined) here
inactive

Fill in: this test's call for "Cc1ccc(/C=N/NC2=NCCN2)s1" is ___
inactive

Dear colleague, could you share the recorded outcome for "c1ccc2c(c1)c1c(n2CCOCCN2CCCC2)CCCC1" when you have a moment?
inactive

What did this assay record as the result for "COc1ccc(/C=C(\NC(=O)c2ccccc2)c2nc3ccccc3[nH]2)cc1" ?
inactive

I would be grateful if you could indicate the recorded call for Nc1ncnc2c1nc(Cl)n2C1OC(CO)C(O)C1O (centres undefined) .
inactive

Answer briefly: the call reported for "COc1ccc(C(OC(=O)[C@H](O[Si](C)(C)C(C)(C)C)[C@@H](NC(=O)c2ccccc2)c2ccccc2)c2ccc(OC)cc2)cc1" in this assay.
inactive

# lookup: test call for O=C1C(C(O)(C(F)(F)F)C(F)(F)F)CCC1C(O)(C(F)(F)F)C(F)(F)F (centres undefined)
inactive

# outcome recorded in this test, key = "CCOC(=O)/C(C(=O)Nc1ccc(Cl)cc1)=C(/N)N1CCCC1"
inactive

Name the outcome recorded for CC1(C)O[C@@H]2C[C@H]3[C@@H]4C[C@H](F)C5=CC(=O)C=C[C@]5(C)[C@@]4(F)[C@@H](O)C[C@]3(C)[C@]2(C(=O)CO)O1 [FLUOCINOLONE ACETONIDE] in the assay.
inactive

Please state the recorded outcome for this molecule: "O=C(CCc1ccc(O)c(O)c1)NCCc1cc(O)c(O)c(O)c1"
inactive

Hey, what did the test say about COC(=O)C1CCC(=O)N1/C(C)=N/NC(=O)Nc1ccc(Cl)c(Cl)c1 (centres undefined) ?
inactive

Dear colleague, could you share the recorded outcome for "CNc1cc2oc(=O)cc(C)c2cc1C" when you have a moment?
inactive

Assay outcome for CC(C)(C)[Si](C)(C)OCC#C[C@@]1(O)CCCCC1CC(Sc1ccccc1)Sc1ccccc1 (some centres undefined) : what was it?
inactive

Please state the recorded outcome for this molecule: "Cc1ccc(S(=O)(=O)N/N=C(/CC(=O)c2c(C)[n+]([O-])c3ccccc3[n+]2[O-])C(=O)Nc2ccccc2C)cc1"
inactive

Can you look up the reported call for "CC(C)(C)C1=CC(=N/N=c2\scc(-c3ccccc3)n2-c2ccccc2)C=C(C(C)(C)C)C1=O" for me?
inactive

Answer briefly: the call reported for "COc1ccc(Nc2nn3c(=O)c4c(C)c(C)sc4nc3s2)cc1" in this assay.
inactive

Hi, do you know how CC(C)(C)c1cc(C2COC(c3cc(C(C)(C)C)c(O)c(C(C)(C)C)c3)CO2)cc(C(C)(C)C)c1O (centres undefined) came out in this test?
inactive

Outcome? CNC(=O)OCC1=C(COC(=O)NC)C(C)N(c2ccccc2)C1 (centres undefined)
inactive

Called result for "CCOC(=O)c1nc2ccccc2nc1Oc1cc(OC)c(OC)c(OC)c1"
inactive

In this assay, the call recorded for "CC(C)(O)CO/N=C1\C(=C2\C(=O)Nc3ccccc32)Nc2ccccc21" was what?
inactive

Name the outcome recorded for "O=C(Nc1nncs1)NS(=O)(=O)n1c(=S)sc2ccccc21" in the assay.
inactive

Just curious, what result did "N/C(=N\N=C=C1C(=O)Nc2ccc(F)cc21)NO" get here?
inactive

Any idea what this test logged for CC(C)[C@]12O[C@H]1[C@@H]1O[C@@]13[C@@]1(C)CCC4=C(COC4=O)[C@@H]1C[C@@H]1O[C@@]13C2=O [TRIPTONIDE] ?
active

Can you look up the reported call for "COc1ccc2c(c1OC)C1=C(C2=O)c2cc3c(cc2CCN1)OCO3" for me?
inactive

Answer briefly: the call reported for "Cc1noc2cccc(O)c12" in this assay.
inactive
